Examples of compounds with documented IC50 follow.
system: CCD-19Lu non-cancerous human lung fibroblast cells; test: MTT antiproliferative assay, CCD-19Lu; type: cell-based; conditions: 72 h, CCD-19Lu non-tumorigenic fibroblasts, read-out: IC50 (µM) ± SD CCD-19Lu

- Compound: "C=Cc1c(C)c(O)cc2c1-c1ccc(OC)c(C)c1CC2 [Compound 16, compressin A]"
  Value Units: "µM"
  Censoring Sign: "="
  IC50: 28
- Compound: "C=Cc1cc(O)cc2c1-c1cc(-c3cc4c(c(C)c3O)CCc3cc(O)cc(C(C)OC)c3-4)c(O)c(C)c1CC2 (stereo not shown) [Compound 4, tenuin D]"
  Value Units: "µM"
  Censoring Sign: "="
  IC50: 9.93
- Compound: "C=Cc1c(C)c(O)cc2ccc3c(C)c(O)ccc3c12 [Compound 7, dehydrojuncusol]"
  Value Units: "µM"
  Censoring Sign: "="
  IC50: 42
- Compound: "C=Cc1cc(C(=O)O)cc2c1-c1ccc(O)c(C)c1CC2 [Compound 15]"
  Value Units: "µM"
  Censoring Sign: ">"
  IC50: 100
- Compound: "C=Cc1c(CO)ccc2c1ccc1c(C)c(O)ccc12 [Compound 9]"
  Value Units: "µM"
  Censoring Sign: "="
  IC50: 75.3
- Compound: "C=Cc1cc(O)c(CO)c2c1-c1ccc(O)c(C)c1CC2 [Compound 3]"
  Value Units: "µM"
  Censoring Sign: "="
  IC50: 96.8
- Compound: "COc1cccc2c1C(=O)c1c(O)c3c(c(O)c1C2=O)C[C@@](O)(C(=O)CO)C[C@@H]3O[C@H]1C[C@H](N)[C@H](O)[C@H](C)O1 [doxorubicin]"
  Value Units: "µM"
  Censoring Sign: "="
  IC50: 1.03

* * *

system: COLO 320/MDR-LRP multidrug-resistant human colonic adenocarcinoma cells; experiment: MTT antiproliferative assay, COLO 320; type: cell-based; conditions: Homo sapiens, COLO 320, 72 h, COLO 320 (multidrug-resistant), read-out: IC50 (µM) ± SD COLO 320
Measured Parameter: log10 of IC50 (log10 of the value in µM)

- Molecule: "C=Cc1cc(C=O)cc2c1-c1ccc(O)c(C)c1CC2 [Compound 14]"
  log10 of IC50: 1.60
- Molecule: "C=Cc1c(C)c(O)cc2c1ccc1c(C)c(O)ccc12 [Compound 8, dehydrojuncuenin B]"
  log10 of IC50: 1.25
- Molecule: "C=Cc1c(C)c(O)cc2c1-c1ccc(OC)c(C)c1CC2 [Compound 16, compressin A]"
  log10 of IC50: 1.28
- Molecule: "C=Cc1cc(O)cc2c1-c1ccc(OC)c(C)c1CC2 [Compound 12]"
  log10 of IC50: 1.41
- Molecule: "C=Cc1c(CO)ccc2c1CCc1c-2ccc(O)c1C [Compound 18]"
  log10 of IC50: 1.50
- Molecule: "C=Cc1cc2c(ccc3c(C)c(O)ccc32)cc1CO [Compound 2, tenuin B]"
  log10 of IC50: 1.58
- Molecule: "C=Cc1cc(O)cc2c1-c1cc(-c3cc4c(c(C)c3O)CCc3cc(O)cc(C=C)c3-4)c(O)c(C)c1CC2 [Compound 19, effususin A]"
  log10 of IC50: 1.24
- Molecule: "C=Cc1cc(O)cc2c1-c1ccc(O)c(C)c1CC2 [Compound 10, effusol]"
  log10 of IC50: 1.70
- Molecule: "COc1cccc2c1C(=O)c1c(O)c3c(c(O)c1C2=O)C[C@@](O)(C(=O)CO)C[C@@H]3O[C@H]1C[C@H](N)[C@H](O)[C@H](C)O1 [doxorubicin]"
  log10 of IC50: 0.24
- Molecule: "C=Cc1cc(O)c(C)c2c1-c1ccc(O)c(C)c1CC2 [Compound 17]"
  log10 of IC50: 1.55
- Molecule: "C=Cc1cc(C(=O)O)cc2c1-c1ccc(O)c(C)c1CC2 [Compound 15]"
  log10 of IC50: 1.68
- Molecule: "C=Cc1c(C)c(O)cc2c1-c1ccc(O)c(C)c1CC2 [Compound 11, juncusol]"
  log10 of IC50: 1.56
- Molecule: "C=Cc1cc(CO)cc2c1-c1ccc(O)c(C)c1CC2 [Compound 13]"
  log10 of IC50: 1.55
- Molecule: "C=Cc1cc(O)cc2c1-c1cc(-c3c(O)cc4c(c3C=C)-c3ccc(O)c(C)c3CC4)c(O)c(C)c1CC2 [Compound 5]"
  log10 of IC50: 1.08
- Molecule: "C=Cc1cc(O)cc2c1-c1cc(-c3cc4c(c(C)c3O)CCc3cc(O)cc(C(C)OC)c3-4)c(O)c(C)c1CC2 (stereo not drawn) [Compound 4, tenuin D]"
  log10 of IC50: 1.20
- Molecule: "C=Cc1c(CO)ccc2c1ccc1c(C)c(O)ccc12 [Compound 9]"
  log10 of IC50: 1.63

* * *

tested on: COLO 320/MDR-LRP multidrug-resistant human colonic adenocarcinoma cells; experiment: MTT antiproliferative assay, COLO 320; type: cell-based; details: Homo sapiens, 72 h, COLO 320 (multidrug-resistant), read-out: IC50 (µM) ± SD COLO 320

- Molecule: "C=Cc1c(C)c(O)cc2ccc3c(C)c(O)ccc3c12 [Compound 7, dehydrojuncusol]"
  Value Units: "µM"
  IC50: 45.3
- Molecule: "C=Cc1cc(O)cc2ccc3c(C)c(O)ccc3c12 [Compound 6, dehydroeffusol]"
  Value Units: "µM"
  IC50: 35.6

* * *

tested on: CCD-19Lu non-cancerous human lung fibroblast cells; assay: MTT antiproliferative assay, CCD-19Lu; format: cell-based; conditions: 72 h, CCD-19Lu non-tumorigenic fibroblasts, read-out: IC50 (µM) ± SD CCD-19Lu
Friendly reminder: IC50 below 70 µM is Criterion met, at or above is Criterion not met.

- Compound: "C=Cc1cc2c(ccc3c(C)c(O)ccc32)cc1CO [Compound 2, tenuin B]"
  Category: "Criterion not met"
- Compound: "C=Cc1c(C)c(O)cc2c1ccc1c(C)c(O)ccc12 [Compound 8, dehydrojuncuenin B]"
  Category: "Criterion met"
- Compound: "C=Cc1cc(C=O)cc2c1-c1ccc(O)c(C)c1CC2 [Compound 14]"
  Category: "Criterion met"

* * *

test system: CCD-19Lu non-cancerous human lung fibroblast cells; assay: MTT antiproliferative assay, CCD-19Lu; assay type: cell-based; details: 72 h, CCD-19Lu non-tumorigenic fibroblasts, read-out: IC50 (µM) ± SD CCD-19Lu
Friendly reminder: IC50 below 40 µM is 1, at or above is -1.

- Compound: "C=Cc1cc(O)cc2c1-c1ccc(OC)c(C)c1CC2"
  Category: 1
- Compound: "C=Cc1c(C)c(O)cc2c1-c1ccc(O)c(C)c1CC2"
  Category: -1
- Compound: "C=Cc1cc(O)cc2ccc3c(C)c(O)ccc3c12 [Compound 6, dehydroeffusol]"
  Category: -1
- Compound: "C=Cc1cc(O)cc2c1-c1ccc(O)c(C)c1CC2"
  Category: -1
- Compound: "C=Cc1cc(O)cc2ccc3c(c12)C=CC(=O)C3(C)O (centres unmarked)"
  Category: -1
- Compound: "C=Cc1cc(O)cc2c1-c1cc(-c3cc4c(c(C)c3O)CCc3cc(O)cc(C=C)c3-4)c(O)c(C)c1CC2"
  Category: 1
- Compound: "C=Cc1cc(O)cc2c1-c1cc(-c3c(O)cc4c(c3C=C)-c3ccc(O)c(C)c3CC4)c(O)c(C)c1CC2"
  Category: 1
- Compound: "C=Cc1cc(O)c(C)c2c1-c1ccc(O)c(C)c1CC2"
  Category: -1
